Assay target: recombinant human Myt1 (full length PKMYT1) (Homo sapiens (Human), UniProt Q99640)
Sequence (Q99640 whole entry): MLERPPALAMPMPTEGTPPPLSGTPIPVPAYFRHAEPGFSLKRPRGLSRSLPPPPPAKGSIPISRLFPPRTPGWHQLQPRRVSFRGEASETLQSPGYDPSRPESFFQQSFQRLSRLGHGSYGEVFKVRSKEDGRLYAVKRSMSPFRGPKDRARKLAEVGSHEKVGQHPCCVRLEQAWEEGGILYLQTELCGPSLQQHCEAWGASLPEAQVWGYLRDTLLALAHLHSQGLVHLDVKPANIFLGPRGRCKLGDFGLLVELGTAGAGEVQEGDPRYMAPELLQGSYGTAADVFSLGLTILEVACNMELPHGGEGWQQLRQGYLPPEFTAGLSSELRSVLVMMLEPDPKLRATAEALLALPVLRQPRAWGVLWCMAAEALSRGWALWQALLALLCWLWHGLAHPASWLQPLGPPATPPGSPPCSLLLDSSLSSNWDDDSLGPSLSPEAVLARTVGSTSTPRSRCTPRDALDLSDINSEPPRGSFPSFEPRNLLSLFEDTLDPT
Assay comment: Recombinant human Myt1 kinase assay (ADP-Glo)
Condition set: 10 μM ATP
So I've got a bunch of molecules here, and I need their pIC50 values.
Numbers only, as −log10 of the molar value.

Here are 3 molecules together with their reported answers.
Molecule | pIC50
CC1(C(=O)Nc2ccccc2-c2nc(C(N)=O)c(N)c(-c3c(Cl)ccc4[nH]ncc34)n2)CC1 | 8.40
Cc1cccc(Nc2ncccc2-c2nc(C(N)=O)c(N)c(-c3c(C)ccc4[nH]ncc34)n2)n1 | 8.30
Cc1ccc2[nH]ncc2c1-c1cc(-c2cccc(OCC3(N)CC3)n2)nc(C(N)=O)c1N (atropisomer, axis not shown) [Compound 382] | 8.52

// moving on: another record for pIC50
// pIC50 lookup, key: "Cc1ccc2[nH]ncc2c1-c1nc(-c2ccccc2Nc2ccc(F)cn2)nc(C(N)=O)c1N" 8.10
